The reported measurements were obtained from the Human Domainome abundance scans (Beltran et al. 2025).

B1: Glucocorticoid receptor, residues 419 to 494; numbered along this chain, P04150 (parent)
chain: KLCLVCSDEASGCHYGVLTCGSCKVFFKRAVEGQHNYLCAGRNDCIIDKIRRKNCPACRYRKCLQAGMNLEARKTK

# Variants of: B1
# procedure.text: abundance fitness (aPCA) (normalised: wild type 0, dead -1); higher = more abundant; growth selection in yeast, the domain comes from the species named
# experimental.setup: Homo sapiens
If the reported abundance fitness equals or exceeds -0.1, assign Fulfilled. If not, assign Not fulfilled.

| mutation.list | label |
| --- | --- |
| N43K | Fulfilled |
| R29E | Fulfilled |
| I47T | Not fulfilled |
| R51L | Fulfilled |
| T19Y | Not fulfilled |

Enquiry: Hello, I need to know if `C39R` has measured abundance fitness not below -0.1. Thanks!
Return: Not fulfilled

Enquiry: Entry `H14F` : is its abundance fitness no less than -0.1?
Return: Fulfilled

Enquiry: hey, is abundance fitness for this one >= -0.1? `G33W`
Return: Not fulfilled

Enquiry: Has `N54C` a recorded abundance fitness greater than or equal to -0.1?
Return: Not fulfilled

Enquiry: Hi, just wondering whether `C20L` shows abundance fitness of -0.1 or higher.
Return: Not fulfilled

Enquiry: Is reported abundance fitness greater than or equal to -0.1 here: `A66L`
Return: Fulfilled
